- METHOD NOTES: Proton dissociation constants (pKa) of the proligands by pH-potentiometry, UV–vis and 1H NMR titrations
- Format: physicochemical
- MEASUREMENT SETUP: 30% (v/v) DMSO/H2O solvent mixture, pH–potentiometry, I = 0.1 M (KCl), t = 25 °C, read-out: pKa2
MEASUREMENT NAME: pKa
# print the numeric value only

# pKa of Cc1cc(NC(=S)N/N=C/c2ncccc2CN2CCOCC2)cc(C)c1O [H2L^3] = 5.62

###

- METHOD NOTES: Proton dissociation constants (pKa) of the proligands by pH-potentiometry, UV–vis and 1H NMR titrations
- Type: physicochemical
- MEASUREMENT SETUP: 30% (v/v) DMSO/H2O solvent mixture, UV–vis spectrophotometry, I = 0.1 M (KCl), t = 25 °C, read-out: pKa1
MEASUREMENT NAME: pKa
# print the numeric value only

# pKa of Cc1cc(NC(=S)N/N=C/c2ncccc2CN2CCOCC2)cc(C)c1O [H2L^3] = 1.53

###

- METHOD NOTES: Conditional stability constants of the copper(II) complexes by EDTA displacement (UV–vis)
- Format: physicochemical
- MEASUREMENT SETUP: EDTA displacement, UV–vis, pH 5.9, water; I = 0.1 M (KCl); 25 °C
- Description: The stability constants of 3–6 were determined by EDTA competition experiments monitored by UV–vis spectrophotometry at pH 5.9, where the [Cu(HL)]^+ species is dominant. […] Upon increasing the concentration of EDTA, the absorbance of the characteristic S → Cu charge transfer band at 400–416 nm decreased (see, for example, Figure 3 for the copper(II)–H2L^4 (1:1) system).[68] […] The determined conditional (apparent) formation constants (log K′5.9) are rather similar (see Table 2) in both media. […]
MEASUREMENT NAME: logK′5.9 (H2O)
# print the numeric value only

Guide cases for logK′5.9 (H2O), answers given:
# logK′5.9 (H2O) of Cc1cc(NC(=NN=Cc2ncccc2CN2CCOCC2)[S][Cu][Cl])cc(C)c1O [complex 3, [Cu(HL^3)Cl]·H2O] = 13.82

# logK′5.9 (H2O) of Cc1cc(NC(=NN=Cc2cc(CN3CCOCC3)ccn2)[S][Cu][Cl])cc(C)c1O [complex 4, [Cu(HL^4)Cl]·1.5H2O] = 13.35

# logK′5.9 (H2O) of Cc1cc(NC(=NN=Cc2cccc(CN3CCOCC3)n2)[S][Cu][Cl])cc(C)c1O [complex 6, [Cu(HL^6)Cl]·H2O] = 13.73

---
# logK′5.9 (H2O) of Cc1cc(NC(=NN=Cc2ccc(CN3CCOCC3)cn2)[S][Cu][Cl])cc(C)c1O [complex 5, [Cu(HL^5)Cl]·2.5H2O] = 13.39
